- testDetails: Solubility of crystalline ruxolitinib di-hydrate in organic solvents
- Type: physicochemical
- conditionSummary: ethyl acetate, organic solvent or mixture, thermodynamic from solid
attributeMeasured: solubility

Give the measured solubility of N#CC[C@H](C1CCCC1)n1cc(-c2ncnc3[nH]ccc23)cn1 [Ruxolitinib Di-hydrate] . > 200 mg/mL

---

- testDetails: Aqueous solubility of crystalline ruxolitinib di-hydrate
- Format: physicochemical
- conditionSummary: aqueous acetate solution, 20 °C, aqueous buffer, thermodynamic from solid; pH 4.0 (Acetate), 20-25° C.
attributeMeasured: solubility (µg/mL)
Give the value in µg/mL but do not write µg/mL after it.

Value lookup for solubility; key = N#CC[C@H](C1CCCC1)n1cc(-c2ncnc3[nH]ccc23)cn1 [Ruxolitinib Di-hydrate] 186
